Cited source for all entries: ChEMBL document CHEMBL3507680

# PROTOCOL TEXT: Human HepG2 cell viability assay in 384 well format
# Format: toxicity, cell-based
# Set-up: dose 125 nL, time 70.5 hour; concentration not given beside the values
# TEST SETTINGS: HepG2 cells, read-out: Inhibition
Attribute: cytotoxicity at 70.5 h
Number only, in %; omit the unit.

{"COMPOUND": "CN1CCC(Nc2ccc(F)cc2OCC(F)(F)F)C1=O (stereo unspecified)", "EXPERIMENTAL READOUT": "cytotoxicity at 70.5 h", "SCALE UNIT": "%", "REPORTED VALUE": -0.0891}
{"COMPOUND": "Cc1cnn(C2CCCN(C(=O)Cc3ccc(C)s3)C2)c1 (stereo unspecified)", "EXPERIMENTAL READOUT": "cytotoxicity at 70.5 h", "SCALE UNIT": "%", "REPORTED VALUE": -0.137}
{"COMPOUND": "CCC1=N[C@@]2(CC[C@@H]3CN(CC(C)C)C[C@@H]32)C(=O)N1", "EXPERIMENTAL READOUT": "cytotoxicity at 70.5 h", "SCALE UNIT": "%", "REPORTED VALUE": -2.78}
{"COMPOUND": "Fc1ccc(C2(CNC3=NCCCN3)CCC2)cc1", "EXPERIMENTAL READOUT": "cytotoxicity at 70.5 h", "SCALE UNIT": "%", "REPORTED VALUE": -0.346}
{"COMPOUND": "COc1cccc(C(=O)NCc2ccccc2S(=O)(=O)N(C)CCO)c1", "EXPERIMENTAL READOUT": "cytotoxicity at 70.5 h", "SCALE UNIT": "%", "REPORTED VALUE": -4.69}
{"COMPOUND": "c1cc(C2CN(C3CCCC3)C2)n[nH]1", "EXPERIMENTAL READOUT": "cytotoxicity at 70.5 h", "SCALE UNIT": "%", "REPORTED VALUE": -1.02}
{"COMPOUND": "Cc1c(C(=O)NCC2CCS(=O)(=O)C2)cnn1-c1ccccc1 (stereo unspecified)", "EXPERIMENTAL READOUT": "cytotoxicity at 70.5 h", "SCALE UNIT": "%", "REPORTED VALUE": -1.52}
{"COMPOUND": "CN(Cc1ccc(F)c(F)c1)C(=O)CCc1nc(-c2nnc[nH]2)no1", "EXPERIMENTAL READOUT": "cytotoxicity at 70.5 h", "SCALE UNIT": "%", "REPORTED VALUE": -4.47}

cytotoxicity at 70.5 h measured on Cc1ccccc1CN1CCC2(COCc3cnc(N(C)C)nc32)C1 (stereo unspecified) = 0.683

cytotoxicity at 70.5 h measured on c1ccc(C(c2ccccc2)N2CCN(CCn3cncn3)CC2)cc1 = -10.4

cytotoxicity at 70.5 h measured on CN1CC(C(=O)NC2(c3cccc(F)c3)CCOCC2)CC1=O (stereo unspecified) = -7.9

cytotoxicity at 70.5 h measured on CN1CCC(C(=O)NCc2nncn2-c2ccccc2)CC1=O (stereo unspecified) = -16.9

cytotoxicity at 70.5 h measured on Cc1c(C(=O)NCCC(=O)N2CCCC2)oc2c(F)cccc12 = -6.53

cytotoxicity at 70.5 h measured on Cc1cc(C(=O)N2C[C@@H]3[C@@H](CN(C)CCCn4cccn4)[C@@H]3C2)c(C)o1 = -0.851

cytotoxicity at 70.5 h measured on Cc1nc(C)n(Cc2cccc(NC(=O)N(C)CCC(C)O)c2)n1 (stereo unspecified) = -7.61

* * *

Attribute: cytotoxicity at 70.5 h
# PROTOCOL TEXT: Human HepG2 cell viability assay in 384 well format
# Assay type: toxicity, cell-based
# Design: dose 125 nL, time 70.5 hour; concentration not given beside the values
# TEST SETTINGS: HepG2 cells, read-out: Inhibition
Number only, in %; omit the unit.

The examples below pair each entry with its known result.
{"MOLECULE": "Cc1nccc(CN2CC[C@@]3(CCCN3Cc3ccccc3)[C@@H](O)C2)n1", "cytotoxicity at 70.5 h / %": 1.99}
{"MOLECULE": "CC(NC(=O)N1CCCN(C)CC1)c1ccc(S(N)(=O)=O)cc1 (configuration not stated)", "cytotoxicity at 70.5 h / %": -4.13}
{"MOLECULE": "COc1cccc(-c2cc(NCc3nc(C)cs3)n(C)n2)c1", "cytotoxicity at 70.5 h / %": -9.85}
{"MOLECULE": "OC(CN1CCN(Cc2ccc(F)cc2)CC1)C1CC1 (configuration not stated)", "cytotoxicity at 70.5 h / %": -1.06}
{"MOLECULE": "O=C(O)c1ccc(S(=O)(=O)Nc2ccc(Cl)c(F)c2)c(F)c1", "cytotoxicity at 70.5 h / %": -5.1}

cytotoxicity at 70.5 h measured on CCc1ccc(O)c(C(=O)N2CCN(CC(=O)N3CCCCC3)CC2)c1 = 11.8

cytotoxicity at 70.5 h measured on COc1cc(CNc2cc(N3CCCC3CO)ncn2)ccn1 (configuration not stated) = 24.7

cytotoxicity at 70.5 h measured on Cc1nc(N2CCN(C(=O)C(C)(C)C)CC2)cc(-n2cnc(C)c2C)n1 = 13

cytotoxicity at 70.5 h measured on Cc1noc(C)c1CN(C)Cc1cnc(N2CCOCC2)nc1 = -4.31

cytotoxicity at 70.5 h measured on Cc1cccc(CNC(=O)Nc2ccn(CCN(C)C)n2)c1 = -7.32

cytotoxicity at 70.5 h measured on Cc1cn(-c2ccccc2)nc1NS(=O)(=O)c1cccc(C(=O)O)c1 = -1.1

* * *

# PROTOCOL TEXT: Human HepG2 cell viability assay in 384 well format
# Assay type: toxicity, cell-based
# Parameters: dose 125 nL, time 70.5 hour; concentration not given beside the values
# TEST SETTINGS: HepG2 cells, read-out: Inhibition
Attribute: cytotoxicity at 70.5 h
Number only, in %; omit the unit.

{"COMPOUND": "CC(C)NC(=O)[C@H]1C[C@@H]2[C@@H](C1)OCCN2Cc1cccs1", "cytotoxicity at 70.5 h (%)": -2.88}

cytotoxicity at 70.5 h measured on O=C(Cc1n[nH]c2ccccc12)N1CCCCC1Cn1cccn1 (stereo unspecified) = 2.97

cytotoxicity at 70.5 h measured on COCCn1c2c(ccc1=O)CCN(C(=O)C1CC=CC1)CC2 = -2.63

cytotoxicity at 70.5 h measured on COc1nc2cc(C)ccc2cc1CN(C)Cc1n[nH]c2c1CCCC2 = 2.69

cytotoxicity at 70.5 h measured on Cc1ccc(C(=O)NC2CCN(C(=O)Nc3ccccn3)CC2)o1 = 16.1

cytotoxicity at 70.5 h measured on O=C(c1cnc(-c2cccs2)s1)N1CCCN2CCCC2C1 (stereo unspecified) = -5.78

* * *

Attribute: cytotoxicity at 70.5 h
# PROTOCOL TEXT: Human HepG2 cell viability assay in 384 well format
# Assay type: toxicity, cell-based
# Set-up: dose 125 nL, time 70.5 hour; concentration not given beside the values
# TEST SETTINGS: HepG2 cells, read-out: Inhibition
Number only, in %; omit the unit.

{"COMPOUND": "Cc1nccn1C1CCCN(C(=O)c2ccc(N(C)C)nn2)C1 (stereo not drawn)", "SCALE UNIT": "%", "cytotoxicity at 70.5 h": -4.18}
{"COMPOUND": "CC(=O)NCCNc1cc(C)nc2cc(C)nn12", "SCALE UNIT": "%", "cytotoxicity at 70.5 h": 0.136}

cytotoxicity at 70.5 h measured on CSCC[C@H](NC(=O)CCn1cc(C(C)=O)c2ccccc21)C(=O)O = -8.28

cytotoxicity at 70.5 h measured on CC(C(=O)N1CCCN(c2ncccc2C#N)CC1)n1ccnc1 (stereo not drawn) = 21.6

cytotoxicity at 70.5 h measured on COc1cccc(C(=O)NCC(c2cccn2C)N2CCCC2)c1OC (stereo not drawn) = 3.39

cytotoxicity at 70.5 h measured on CC(C)n1c2ccccc2c2c1cc(C(=O)O)n2C(=O)N(C)C = -2.89

cytotoxicity at 70.5 h measured on CCC(CN1CCCC1)n1cncc1-c1cnn(-c2ccc(F)cc2)c1 (stereo not drawn) = -5.95

cytotoxicity at 70.5 h measured on CCc1nc(Cn2c(=O)n(C)c3ccccc32)no1 = -6.86

cytotoxicity at 70.5 h measured on O=C(NCCc1nncn1C1CC1)c1cc2ccccn2c1 = -10.9

cytotoxicity at 70.5 h measured on O=C(c1ncc(F)cc1F)N1CCC(c2ncc[nH]2)CC1 = -14

cytotoxicity at 70.5 h measured on CCCNC(=O)c1nn(CC)cc1Cl = -3.27

cytotoxicity at 70.5 h measured on Cc1nc(N2CCN(C(=O)c3ccccc3)CC2)cc(-n2ccnc2)n1 = 10.7

cytotoxicity at 70.5 h measured on Cc1nnc(CN(C)C2CCCN(Cc3noc(C4CC4)n3)C2)o1 (stereo not drawn) = -8.76

cytotoxicity at 70.5 h measured on COCCC(=O)Nc1cc(CC(C)(C)C)n[nH]1 = -6.88

cytotoxicity at 70.5 h measured on Cc1cc2c(cc1CNC(Cc1cccs1)c1nccs1)OCO2 (stereo not drawn) = 1.05

cytotoxicity at 70.5 h measured on COc1ccc2c(c1)OCC(Cc1ccc(C)nc1N)C2 (stereo not drawn) = 13.9

cytotoxicity at 70.5 h measured on c1ccc(-c2cc(CNCCN3CCOCC3)c3nnnn3c2)cc1 = -0.928

cytotoxicity at 70.5 h measured on CCN(Cc1cccc(C(N)=O)c1)c1ccccc1 = 12.2

cytotoxicity at 70.5 h measured on O=C1Nc2ccccc2/C1=C1\CCCCCN1 = -9.34

cytotoxicity at 70.5 h measured on O=C(Nc1cccc(Cl)c1)c1nn(C2CCS(=O)(=O)C2)c2c1CCCC2 (stereo not drawn) = 13.9

cytotoxicity at 70.5 h measured on N#CCCN(C(=O)CN1CCCC1c1ccsc1)c1ccccc1 (stereo not drawn) = 20.9
